Data origin, for the record: PubChem BioAssay AID1619

# Measured on: Leucine aminopeptidase (Plasmodium falciparum (isolate 3D7)) (UniProt Q8IL11)
# Sequence (Q8IL11 whole entry, looked up): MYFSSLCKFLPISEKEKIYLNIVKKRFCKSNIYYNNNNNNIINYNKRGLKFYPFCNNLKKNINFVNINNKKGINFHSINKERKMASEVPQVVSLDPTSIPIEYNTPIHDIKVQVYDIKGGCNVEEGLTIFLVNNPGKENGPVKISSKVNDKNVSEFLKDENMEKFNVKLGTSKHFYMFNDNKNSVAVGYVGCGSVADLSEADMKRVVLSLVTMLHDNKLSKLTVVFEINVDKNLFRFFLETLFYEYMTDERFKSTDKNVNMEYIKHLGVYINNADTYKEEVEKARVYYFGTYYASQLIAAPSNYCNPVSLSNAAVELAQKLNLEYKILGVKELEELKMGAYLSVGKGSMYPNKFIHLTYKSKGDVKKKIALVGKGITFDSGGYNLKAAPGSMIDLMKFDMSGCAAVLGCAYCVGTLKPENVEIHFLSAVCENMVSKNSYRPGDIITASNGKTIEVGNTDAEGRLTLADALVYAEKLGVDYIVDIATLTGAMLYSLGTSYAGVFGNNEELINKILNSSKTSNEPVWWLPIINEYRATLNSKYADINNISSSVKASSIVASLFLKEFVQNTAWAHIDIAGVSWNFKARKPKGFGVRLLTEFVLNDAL
# Experiment notes: P. falciparum M17LAP inhibitors, primary screen, biochemical, fluorogenic H-Leu-NHMec substrate, 1536-well (AID 1619);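 further: plate controls were full reaction with DMSO carrier for no effect and no enzyme background for full effect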
# Condition notes: recombinant M17LAP, H-Leu-NHMec fluorogenic kinetic assay; at 30 µM; hits give high values
Among all 220,000 compounds or so, about 830 (0.38%) were called active. The list is a sample of the results. Measured potencies and affinities stand elsewhere.
Assay metric: inhibition (%)
Quick note: give the figure in %, leave out the unit.

CCOc1cc(/C=N/NC(=S)Nc2ccccc2C(F)(F)F)ccc1OCC(=O)N1CCOCC1; 0.32
Cc1ccc(CNC(=O)c2ccc3c(=O)[nH]c4c(C(=O)NCC5CCCO5)sc(=S)n4c3c2)cc1 (stereo not given); 1.99
CC(C)OC(=O)/C(C#N)=C/c1cn(C)c2ccccc12; -3.85
CCCCCNC(=O)c1ccc2c(=O)[nH]c3c(C(=O)NCC4CCCO4)sc(=S)n3c2c1 (stereo not given); 53.8
CCc1cccc(NC(=O)CCSCCC(=O)Nc2cccc(CC)c2)c1; 10.7

Summary for this molecule, CCC1S/C(=N/N=C/c2ccco2)N(c2ccc(F)cc2)C1=O (stereo not given) : inhibition is 5.93

Summary for this molecule, O=C(CSc1nnc2sc3ccccc3n12)c1ccco1 : inhibition is -1.98

Summary for this molecule, OC(CNCc1ccccn1)c1ccccc1 (stereo not given) : inhibition is -7.85

Summary for this molecule, CC(=O)C1=C(O)C(=O)N(Cc2ccco2)C1c1ccc(F)cc1 (stereo not given) : inhibition is 11

Summary for this molecule, N#CCOc1nc(N2CCCC2)nc(N2CCCC2)n1 : inhibition is 1.35

Summary for this molecule, CC(C)(C)C1(C)OC(C(N)=O)C(C(N)=O)O1 (stereo not given) : inhibition is 8.29

Summary for this molecule, COc1ccccc1NC(=O)CSc1nc(N)cc(N)n1 : inhibition is 10.8

Summary for this molecule, Cc1ccc([N+](=O)[O-])cc1-c1ccc(/C=N\n2nnnc2N)o1 : inhibition is 14.9

Summary for this molecule, O=C(Cc1ccccc1)NCC(=O)OC(c1ccccc1)c1ccccc1 : inhibition is 0.75

* * *

# Measured on: Leucine aminopeptidase (Plasmodium falciparum (isolate 3D7))
# Experiment notes: P. falciparum M17LAP inhibitors, primary screen, biochemical, fluorogenic H-Leu-NHMec substrate, 1536-well (AID 1619);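 further: plate controls were full reaction with DMSO carrier for no effect and no enzyme background for full effect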
# Condition notes: recombinant M17LAP, H-Leu-NHMec fluorogenic kinetic assay; at 30 µM; hits give high values
Hit rate of the full screen: of about 220,000 compounds, about 830 (0.38%) were called active. These entries were drawn from the full list. Entries with a potency or affinity are not part of this list.
Recorded inhibition values for a group of compounds are listed next.
Quick note: give the figure in %, leave out the unit.

Solved entries (count: 4):
CNC(=O)N(C1=NCC(C)(C)S1)c1ccc(F)c(Cl)c1; -9.97
CC1(C(=O)Nc2nnc(SCc3ccccc3)s2)Cc2ccccc2C(=O)O1 (stereo unspecified); 45.4
COc1ccccc1NC(=O)NCc1ccco1; 4.76
Cc1cccc(NS(=O)(=O)c2ccc3c(c2)NC(=O)CC(=O)N3)c1; 0.82

Summary for this compound, Cc1[nH]c(C(=O)N/N=C/c2ccc(N(C)C)cc2)c(C)c1C(=O)N/N=C/c1ccc(N(C)C)cc1 : inhibition is -3.97

Summary for this compound, COc1cc(/C=C2\SC(=Nc3ccc(F)cc3)N(c3ccc(F)cc3)C2=O)ccc1OCC(=O)O : inhibition is 38.3
